ASSAY SYSTEM: TYK2 (Homo sapiens (Human))
Sequence (P29597 897-1176): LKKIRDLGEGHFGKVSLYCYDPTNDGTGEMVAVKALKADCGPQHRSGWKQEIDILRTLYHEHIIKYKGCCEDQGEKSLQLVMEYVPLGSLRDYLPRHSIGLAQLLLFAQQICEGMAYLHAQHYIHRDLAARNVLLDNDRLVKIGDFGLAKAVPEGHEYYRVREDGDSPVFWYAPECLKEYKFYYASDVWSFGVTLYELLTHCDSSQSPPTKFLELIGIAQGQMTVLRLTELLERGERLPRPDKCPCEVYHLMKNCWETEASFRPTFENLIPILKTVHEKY
ASSAY INFO: JAK Caliper Enzyme Assay at 1 mM ATP, TYK2
Format: biochemical
PROPERTY MEASURED: pIC50
For clarity, pIC50 is expressed as the negative log10 of concentration in mol/L.

Worked cases, answers included:
1. Cn1ncc(-c2cc(-c3cnn([C@]4(CC#N)C[C@@H](C#N)C4)n3)c3cccnc3c2)c1CO: 5.89
2. N#CCC1(n2ccc(-c3nc(Oc4cccc(N)n4)cc4ncccc34)n2)CC(C#N)C1 (centres unmarked): 5.72
3. N#CC[C@H]1C[C@](CC#N)(n2ccc(-c3nc(-c4cn[nH]c4)cc4ncccc34)n2)C1: 7.13

query: Reported pIC50, compound Cc1ccc(-c2cc(-c3cnn(C4(CC#N)CN(S(C)(=O)=O)C4)n3)c3cccnc3c2)cn1 : ____
result: 6.86

query: Reported pIC50, compound Cn1ncc(-c2cc3ncccc3c(-c3ccn(C4(CC#N)CC(C#N)C4)n3)n2)c1N (centres unmarked) : ____
result: 7.31

query: Reported pIC50, compound CS(=O)(=O)N1CC(CC#N)(n2ncc(-c3cc(-c4cc[nH]n4)cc4ncccc34)n2)C1 : ____
result: 7.64

query: Reported pIC50, compound CCN1CC(CC#N)(n2ccc(-c3nc(-c4cc(N)n(C)n4)cc4ncccc34)n2)C1 : ____
result: 6.36

query: Reported pIC50, compound CS(=O)(=O)N1CC(CC#N)(n2ccc(-c3nc(-c4cnn(C(F)(F)F)c4)cc4ncccc34)n2)C1 : ____
result: 6.07

---

ASSAY SYSTEM: UniProt:P29597
ASSAY INFO: JAK Caliper Enzyme Assay at 1 mM ATP, TYK2
Format: biochemical
PROPERTY MEASURED: pIC50
For clarity, pIC50 is expressed as the negative log10 of concentration in mol/L.

Worked cases, answers included:
1. Cn1cc(-c2cc3ncccc3c(-c3ccn(C4(CC#N)CN(CC(F)(F)F)C4)n3)n2)cn1: 7.80
2. Cn1cc(-c2cc(-c3cnn([C@]4(CC#N)C[C@H](C#N)C4)n3)c3cccnc3c2)c(N)n1: 7.80
3. Cn1cc(-c2cc(-c3cnn(C4(CC#N)CC(C#N)C4)n3)c3cccnc3c2)c(CO)n1 (centres unmarked): 7.15
4. N#CCC1(n2ccc(-c3nc(Cl)cc4ncccc34)n2)CN(CC(F)(F)F)C1: 5.83
5. CS(=O)(=O)N1CC(CC#N)(n2ccc(-c3nc(-c4ccc(N)nc4)cc4ncccc34)n2)C1: 7.35

query: Reported pIC50, compound N#CC[C@]1(n2ccc(-c3nc(-c4cc(N)cnn4)cc4ncccc34)n2)C[C@@H](C#N)C1 : ____
result: 6.30

query: Reported pIC50, compound COc1nc(-c2cc3ncccc3c(-c3ccn([C@]4(CC#N)C[C@H](C#N)C4)n3)n2)ccc1N : ____
result: 7.82

query: Reported pIC50, compound Cc1onc(N)c1-c1cc2ncccc2c(-c2ccn(C3(CC#N)CN(S(C)(=O)=O)C3)n2)n1 : ____
result: 5.12

---

ASSAY SYSTEM: UniProtKB P29597
ASSAY INFO: JAK Caliper Enzyme Assay at 1 mM ATP, TYK2
Format: biochemical
ASSAY CONDITIONS: JAK Caliper enzyme assay
pIC50: −log10 of the molar value.
Tag: 1 if measured pIC50 is not below 6, 0 if it is.

1) Cn1cc(-c2cn3ncnc3c(-c3cnn(C4(CC#N)CN(CC#N)C4)c3)n2)cn1 [Example 477]: 1
2) N#CC[C@]1(n2cc(-c3cc(-c4c[nH]nc4N)cc4nccn34)cn2)C[C@@H](C#N)C1 [Example 466]: 1
3) Cc1cncc(-c2cc(-c3cnn([C@]4(CC#N)C[C@H](C#N)C4)n3)c3cccnc3c2)n1 [Example 402]: 0
4) N#CC[C@]1(n2ncc(-c3cc(-c4cc(O)ncc4F)cc4ncccc34)n2)C[C@@H](C#N)C1 [Example 387]: 0

query: Evaluate N#CC[C@]1(n2ncc(-c3cc(-c4cncnc4)cc4ncccc34)n2)C[C@@H](C#N)C1 [Example 391] : pIC50 at minimum 6?
result: 0

query: Evaluate Cc1cc(-c2cc(-c3cnn([C@]4(CC#N)C[C@H](C#N)C4)c3)n3ccnc3c2)n[nH]1 [Example 462] : pIC50 at minimum 6?
result: 1

query: Evaluate N#CC[C@]1(n2ncc(-c3cc(-c4cc5c(cn4)CCN5)cc4ncccc34)n2)C[C@@H](C#N)C1 [Example 380] : pIC50 at minimum 6?
result: 1

---

ASSAY SYSTEM: JAK1 (Homo sapiens (Human))
Sequence (P23458 875-1153): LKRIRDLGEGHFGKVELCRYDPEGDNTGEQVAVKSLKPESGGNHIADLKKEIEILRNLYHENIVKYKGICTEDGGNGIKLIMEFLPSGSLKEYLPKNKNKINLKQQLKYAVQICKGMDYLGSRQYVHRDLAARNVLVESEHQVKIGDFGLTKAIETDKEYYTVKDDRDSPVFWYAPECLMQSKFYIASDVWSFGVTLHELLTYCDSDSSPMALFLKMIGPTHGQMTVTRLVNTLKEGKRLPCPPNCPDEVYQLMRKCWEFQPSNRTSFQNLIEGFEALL
ASSAY INFO: JAK Caliper Enzyme Assay at 1 mM ATP, JAK1
Format: biochemical
PROPERTY MEASURED: IC50 (nM)
// return numeric value only (unit: nM, not printed)

Worked cases, answers included:
1) Cc1cc(-c2cc3ncccc3c(-c3ccn(C4(CC#N)CN(CC(F)(F)F)C4)n3)n2)ccn1: 966
2) N#CCC1(n2ccc(-c3nc(-c4ccnc(C(N)=O)c4)cc4ncccc34)n2)CN(CC(F)(F)F)C1: 6010

We now examine a further compound.
query: For the record Cn1nc(-c2cc3ncccc3c(-c3ccn([C@]4(CC#N)C[C@H](C#N)C4)n3)n2)cc1CO , what value of IC50 is listed for JAK1 (Homo sapiens (Human))?
result: 672

---

ASSAY SYSTEM: UniProt P52333
Sequence (P52333 822-1111): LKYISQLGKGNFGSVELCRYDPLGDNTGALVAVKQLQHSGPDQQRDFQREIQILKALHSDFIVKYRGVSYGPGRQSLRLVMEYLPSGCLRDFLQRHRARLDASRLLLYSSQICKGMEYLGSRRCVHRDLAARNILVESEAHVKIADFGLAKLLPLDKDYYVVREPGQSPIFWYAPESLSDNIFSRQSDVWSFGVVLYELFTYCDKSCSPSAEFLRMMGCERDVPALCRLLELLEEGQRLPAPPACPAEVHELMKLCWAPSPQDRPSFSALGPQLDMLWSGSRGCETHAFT
ASSAY INFO: JAK Caliper Enzyme Assay at 1 mM ATP, JAK3
Format: biochemical
PROPERTY MEASURED: IC50

1. N#CC[C@]1(n2ccc(-c3nc(-c4ccc(N)c(C(N)=O)n4)cc4ncccc34)n2)C[C@@H](C#N)C1: > 10 µM
2. N#CC[C@H]1C[C@](CC#N)(n2cc(-c3nc(-c4cn[nH]c4)cc4ncccc34)cn2)C1: > 10 µM
3. Cn1cc(-c2cc(-c3cnn([C@]4(CC#N)C[C@@H](C#N)C4)n3)c3cccnc3c2)c(N)n1: > 10 µM

We now examine a further compound.
query: For the record N#CCC1(n2ncc(-c3cc(-c4cc(N)[nH]n4)cc4ncccc34)n2)CC(C#N)C1 (stereo not shown) , what value of IC50 is listed for UniProt P52333?
result: 9.16 µM

---

ASSAY SYSTEM: TYK2 (Homo sapiens (Human))
ASSAY INFO: JAK Caliper Enzyme Assay at 1 mM ATP, TYK2
Assay type: biochemical
Protocol: Compounds of the invention were evaluated by in vitro methods to determine their respective ability to inhibit the JAK kinases (TYK2, JAK1, JAK2, JAK3). The human JAK inhibitory activity was determined by using a microfluidic assay to monitor phosphorylation of a synthetic peptide by the recombinant human kinase domain of each of the four members of the JAK family, JAK1, JAK2, JAK3 and TYK2. […]
pIC50: −log10 of the molar value.
Tag: yes (1) if measured pIC50 is not below 7, no (0) if it is.

1. Cc1cc(-c2cc3ncccc3c(-c3ccn([C@]4(CC#N)C[C@H](C#N)C4)n3)n2)cc(N)n1: yes (1)
2. CS(=O)(=O)N1CC(CC#N)(n2ccc(-c3nc(-c4cnc5nccn5c4)cc4ncccc34)n2)C1: no (0)

Now examine the next entry.
query: Evaluate N#CCC1(n2ccc(-c3nc(-c4ccnnc4)cc4ncccc34)n2)CN(CC(F)(F)F)C1 : pIC50 at minimum 7?
result: no (0)

---

ASSAY SYSTEM: UniProt:O60674
Sequence (O60674 849-1124): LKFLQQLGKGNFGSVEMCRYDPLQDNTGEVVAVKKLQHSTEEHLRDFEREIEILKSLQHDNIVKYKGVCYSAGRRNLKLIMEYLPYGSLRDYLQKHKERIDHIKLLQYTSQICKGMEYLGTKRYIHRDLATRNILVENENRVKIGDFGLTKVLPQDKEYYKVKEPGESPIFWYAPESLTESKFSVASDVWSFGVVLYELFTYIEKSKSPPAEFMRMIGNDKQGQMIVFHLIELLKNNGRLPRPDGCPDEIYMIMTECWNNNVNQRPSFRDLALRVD
ASSAY INFO: JAK Caliper Enzyme Assay at 1 mM ATP, JAK2
Type: biochemical
PROPERTY MEASURED: log10 of IC50 (log10 of the value in nM)
In plain terms, each number is the log10 of measured IC50 in nM.

Worked cases, answers included:
1. Cc1nc(-c2cc(-c3cnn([C@]4(CC#N)C[C@H](C#N)C4)n3)c3cccnc3c2)c[nH]1: 1.51
2. CS(=O)(=O)N1CC(CC#N)(n2ccc(-c3nc(-c4cn[nH]c4)cc4ncccc34)n2)C1: 2.65
3. N#CCN1CC(CC#N)(n2ccc(-c3nc(-c4cnn(C5COC5)c4)cc4ncccc34)n2)C1: 1.45
4. Cn1cc(-c2cc3ncccc3c(-c3ccn(C4(CC#N)CN(S(C)(=O)=O)C4)n3)n2)cn1: 2.21
5. N#CC[C@]1(n2ncc(-c3cc(-c4ccc(N)cn4)cc4ncccc34)n2)C[C@H](C#N)C1: 2.55
6. N#CC[C@]1(n2ccc(-c3nc(-c4cn[nH]c4CO)cc4ncccc34)n2)C[C@H](C#N)C1: 2.20
7. N#CCC1(n2cc(-c3nc(-c4cn[nH]c4)cc4ncccc34)cn2)CN(CC(F)(F)F)C1: 1.59
8. CS(=O)(=O)N1CC(CC#N)(n2ccc(-c3nc(-c4cnn(CC5COC5)c4)cc4ncccc34)n2)C1: 1.85

query: Reported log10 of IC50, compound CS(=O)(=O)Nc1ccc(-c2cc3ncccc3c(-c3ccn(C4(CC#N)CN(S(C)(=O)=O)C4)n3)n2)cn1 : ____
result: 2.17

query: Reported log10 of IC50, compound CS(=O)(=O)N1CC(CC#N)(n2ccc(-c3nc(-c4ccc(F)cc4O)cc4ncccc34)n2)C1 : ____
result: 2.75

query: Reported log10 of IC50, compound CS(=O)(=O)c1ccc(-c2cc3ncccc3c(-c3ccn([C@]4(CC#N)C[C@@H](C#N)C4)n3)n2)cn1 : ____
result: 2.56

query: Reported log10 of IC50, compound Cc1cn([C@]2(CC#N)C[C@H](C#N)C2)nc1-c1nc(-c2cc(N)n(C)n2)cc2ncccc12 : ____
result: 3.36

query: Reported log10 of IC50, compound N#CC[C@]1(n2ncc(-c3cc(-c4cccc(C(=O)O)n4)cc4ncccc34)n2)C[C@H](C#N)C1 : ____
result: 2.54

query: Reported log10 of IC50, compound Cn1cc(-c2cc3ncccc3c(-c3ccn([C@]4(CC#N)C[C@@H](C#N)C4)n3)n2)c(N)n1 : ____
result: 1.30

Reference for the values: patent US11254668B2
